target: hSHMT1 E75L (Homo sapiens, UniProt P34896, E75L); experiment: Surface plasmon resonance binding of Gly-DCA to mutant hSHMT1 E75L
Sequence (P34896 whole entry E75L): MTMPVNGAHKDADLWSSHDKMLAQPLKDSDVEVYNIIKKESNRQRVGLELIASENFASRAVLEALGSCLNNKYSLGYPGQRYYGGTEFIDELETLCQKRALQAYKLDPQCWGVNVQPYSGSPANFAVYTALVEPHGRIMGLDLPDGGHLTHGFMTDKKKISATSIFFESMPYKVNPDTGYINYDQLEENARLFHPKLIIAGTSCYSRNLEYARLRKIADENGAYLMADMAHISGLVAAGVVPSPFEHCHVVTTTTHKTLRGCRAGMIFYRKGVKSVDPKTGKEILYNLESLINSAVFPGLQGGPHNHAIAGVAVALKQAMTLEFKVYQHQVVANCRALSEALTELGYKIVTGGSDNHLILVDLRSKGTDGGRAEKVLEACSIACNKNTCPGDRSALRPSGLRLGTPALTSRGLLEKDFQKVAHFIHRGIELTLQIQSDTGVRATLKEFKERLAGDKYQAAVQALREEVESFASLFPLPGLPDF
Recorded Metric: Kd (µM)
Could you give me the number in µM? Just the number is fine.

Lookup: Fill in the blank: the reported Kd of CC(CCC(=O)NCC(=O)O)C1CCC2C3CCC4CC(O)CCC4(C)C3CC(O)C12C (stereo not shown) [Gly-DCA, glycodeoxycholic acid] is ____.
Found: 73.5

* * *

Target chain: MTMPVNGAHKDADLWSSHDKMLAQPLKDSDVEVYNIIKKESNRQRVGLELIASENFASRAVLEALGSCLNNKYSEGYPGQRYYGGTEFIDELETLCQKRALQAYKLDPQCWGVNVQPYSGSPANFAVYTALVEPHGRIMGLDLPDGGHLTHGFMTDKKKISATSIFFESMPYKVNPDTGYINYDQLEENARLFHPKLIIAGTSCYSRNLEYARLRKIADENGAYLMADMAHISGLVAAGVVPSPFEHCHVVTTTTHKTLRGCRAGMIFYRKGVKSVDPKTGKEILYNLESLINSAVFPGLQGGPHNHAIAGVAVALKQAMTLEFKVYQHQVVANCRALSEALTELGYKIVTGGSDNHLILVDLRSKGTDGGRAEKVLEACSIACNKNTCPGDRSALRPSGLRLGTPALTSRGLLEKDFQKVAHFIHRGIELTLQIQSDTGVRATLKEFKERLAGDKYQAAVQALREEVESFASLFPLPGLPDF
Recorded Metric: Kd (µM)
Could you give me the number in µM? Just the number is fine.

Lookup: Fill in the blank: the reported Kd of CC(CCC(=O)NCC(=O)O)C1CCC2C3CCC4CC(O)CCC4(C)C3CC(O)C12C (stereo not shown) is ____.
Found: 7.6

* * *

target: hSHMT2 (Homo sapiens)
Sequence (P34897 30-504): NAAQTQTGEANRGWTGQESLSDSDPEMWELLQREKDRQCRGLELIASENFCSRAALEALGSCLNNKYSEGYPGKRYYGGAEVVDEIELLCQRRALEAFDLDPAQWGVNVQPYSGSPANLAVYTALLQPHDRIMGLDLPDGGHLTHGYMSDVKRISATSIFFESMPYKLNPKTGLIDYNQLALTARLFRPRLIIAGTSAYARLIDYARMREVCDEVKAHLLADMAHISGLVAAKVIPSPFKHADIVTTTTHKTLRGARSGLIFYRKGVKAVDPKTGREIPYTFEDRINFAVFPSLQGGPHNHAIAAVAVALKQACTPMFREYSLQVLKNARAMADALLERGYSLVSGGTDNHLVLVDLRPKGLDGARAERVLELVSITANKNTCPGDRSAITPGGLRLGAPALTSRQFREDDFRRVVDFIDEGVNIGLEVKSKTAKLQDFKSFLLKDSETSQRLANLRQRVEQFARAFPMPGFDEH
Recorded Metric: pKd
Please note pKd is a logarithmic value: minus log10 of concentration in mol/L. Answer with that number alone.

Lookup: # value lookup — system hSHMT2 (Homo sapiens), readout pKd, item CC(CCC(=O)NCC(=O)O)C1CCC2C3CCC4CC(O)CCC4(C)C3CC(O)C12C (stereo not shown)
Found: 6.60
